Below, each entry is listed alongside its reported Eoff, proportion of off-parasite-target effect.
# System: Cryptosporidium parvum
# protocol notes: Anti-cryptosporidial efficacy assay (44-h infection/qRT-PCR)
# details: at EC90; MDR1(PTX) vs. NC model; Eq 3 and 4
Where a name gives a salt, the structure may show the parent alone.
Write down the numeric answer in % and omit the unit.

The examples below pair each entry with its known result.
>>> observed_result("CC(=O)O[C@H]1C(=O)[C@@]2(C)[C@H]([C@H](OC(=O)c3ccccc3)[C@]3(O)C[C@H](OC(=O)[C@H](O)[C@@H](NC(=O)c4ccccc4)c4ccccc4)C(C)=C1C3(C)C)[C@]1(OC(C)=O)CO[C@@H]1C[C@@H]2O [Paclitaxel]")
1.50
>>> observed_result("CC[C@]1(O)C[C@H]2CN(CCc3c([nH]c4ccccc34)[C@@](C(=O)OC)(c3cc4c(cc3OC)N(C=O)[C@H]3[C@@](O)(C(=O)OC)[C@H](OC(C)=O)[C@]5(CC)C=CCN6CC[C@]43[C@@H]65)C2)C1 [Vincristine, Vincristine sulphate]")
37.10
>>> observed_result("COc1cccc2c1C(=O)c1c(O)c3c(c(O)c1C2=O)C[C@@](O)(C(=O)CO)C[C@@H]3O[C@H]1C[C@H](N)[C@H](O)[C@H](C)O1 [Doxorubicin, Doxorubicin HCl]")
72.90

# evaluate next
Fill in: Eoff, proportion of off-parasite-target effect of O=C1c2c(O)ccc(O)c2C(=O)c2c(NCCNCCO)ccc(NCCNCCO)c21 [Mitoxantrone, Mitoxantrone 2HCl] is ___
81.90

###

Below, each entry is listed alongside its reported Eoff, proportion of off-parasite-target effect.
# Tested on: Cryptosporidium parvum
# protocol notes: Anti-cryptosporidial efficacy assay (44-h infection/qRT-PCR)
# details: at EC60; MDR1(PTX) vs. NC model; Eq 3 and 4
Counter-ions that a name gives are not always drawn.
Please append the unit to your numeric answer.

The examples below pair each entry with its known result.
>>> observed_result("CC(=O)O[C@H]1C(=O)[C@@]2(C)[C@H]([C@H](OC(=O)c3ccccc3)[C@]3(O)C[C@H](OC(=O)[C@H](O)[C@@H](NC(=O)c4ccccc4)c4ccccc4)C(C)=C1C3(C)C)[C@]1(OC(C)=O)CO[C@@H]1C[C@@H]2O [Paclitaxel]")
"-1.00%"
>>> observed_result("O=C1c2c(O)ccc(O)c2C(=O)c2c(NCCNCCO)ccc(NCCNCCO)c21 [Mitoxantrone, Mitoxantrone 2HCl]")
"63.90%"
>>> observed_result("CC[C@]1(O)C[C@H]2CN(CCc3c([nH]c4ccccc34)[C@@](C(=O)OC)(c3cc4c(cc3OC)N(C=O)[C@H]3[C@@](O)(C(=O)OC)[C@H](OC(C)=O)[C@]5(CC)C=CCN6CC[C@]43[C@@H]65)C2)C1 [Vincristine, Vincristine sulphate]")
"37.60%"

# evaluate next
Fill in: Eoff, proportion of off-parasite-target effect of COc1cccc2c1C(=O)c1c(O)c3c(c(O)c1C2=O)C[C@@](O)(C(=O)CO)C[C@@H]3O[C@H]1C[C@H](N)[C@H](O)[C@H](C)O1 [Doxorubicin, Doxorubicin HCl] is ___
49.60%

###

# System: Cryptosporidium parvum
# protocol notes: Anti-cryptosporidial efficacy assay (44-h infection/qRT-PCR)
# details: at EC30; MDR1(PTX) vs. NC model; Eq 3 and 4
Structures can show the parent of a compound that is named as a salt.
Below, each entry is listed alongside its reported Eoff, proportion of off-parasite-target effect.
Write down the numeric answer in % and omit the unit.

The examples below pair each entry with its known result.
>>> observed_result("CC(=O)O[C@H]1C(=O)[C@@]2(C)[C@H]([C@H](OC(=O)c3ccccc3)[C@]3(O)C[C@H](OC(=O)[C@H](O)[C@@H](NC(=O)c4ccccc4)c4ccccc4)C(C)=C1C3(C)C)[C@]1(OC(C)=O)CO[C@@H]1C[C@@H]2O [Paclitaxel]")
-2.60
>>> observed_result("CC[C@]1(O)C[C@H]2CN(CCc3c([nH]c4ccccc34)[C@@](C(=O)OC)(c3cc4c(cc3OC)N(C=O)[C@H]3[C@@](O)(C(=O)OC)[C@H](OC(C)=O)[C@]5(CC)C=CCN6CC[C@]43[C@@H]65)C2)C1 [Vincristine, Vincristine sulphate]")
37.90
>>> observed_result("O=C1c2c(O)ccc(O)c2C(=O)c2c(NCCNCCO)ccc(NCCNCCO)c21 [Mitoxantrone, Mitoxantrone 2HCl]")
52.00

# evaluate next
Enter reported Eoff, proportion of off-parasite-target effect observed with Cryptosporidium parvum for COc1cccc2c1C(=O)c1c(O)c3c(c(O)c1C2=O)C[C@@](O)(C(=O)CO)C[C@@H]3O[C@H]1C[C@H](N)[C@H](O)[C@H](C)O1 [Doxorubicin, Doxorubicin HCl]
37.30
